biological target: T1, recombinant human Fc-PD-1 protein (human, UniProt Q15116 25-170); assay: Biacore, Fab, human Fc-PD-1
T1 construct: may be the same protein as the PD-1 Fc fusion of the Luminex assays; also called recombinant human PD-1 in an Fc fusion construct; not shown: Fc part not described
T1 sequence (Q15116 25-170): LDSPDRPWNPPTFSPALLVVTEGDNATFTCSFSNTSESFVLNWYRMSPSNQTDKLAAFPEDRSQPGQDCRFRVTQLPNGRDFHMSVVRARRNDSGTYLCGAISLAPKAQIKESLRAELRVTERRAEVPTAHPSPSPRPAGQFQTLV
Where kon equals or exceeds 100000 M⁻¹ s⁻¹, the correct label is met; where it does not, the label is not met.

{"binder": "A35805 (Fab, V domains shown, humanized Fab clone of 137F2; also called humanized antibody A35805) VH: QVQLVQSGSELKKPGASVKVSCKASGYTFTNYWIGWVRQAPGKGLEWMGDIYPGGGYTNYNEKFKGRVTITADKSTSTAYMELSSLRSEDTAVYYCARGYDFVLDRWGQGTTVTVSS VL: DVVMTQSPAFLSVTPGEKVTITCKSSQSLFNSETQKNYLAWYQQKPGQPPKLLIYWASTRESGVPSRFSGSGSGTDFTFTISSLEAEDAATYYCKQSYTLRTFGGGTKLEIK", "group_label": "not met"}
{"binder": "A35796 (Fab, V domains shown, humanized Fab clone of 137F2; also called humanized antibody A35796) VH: QMQLVQSGPEVKKPGTSVKVSCKASGFTFTNYWIGWVRQAPGQALEWMGDIYPGGGYTNYNEKFKGRVTITADKSTSTAYMELSSLRSEDTAVYYCARGYDFVLDRWGQGTTVTVSS VL: DVVMTQSPAFLSVTPGEKVTITCKSSQSLFNSETQKNYLAWYQQKPGQPPKLLIYWASTRESGVPSRFSGSGSGTDFTLTISSLQPEDFATYYCKQSYTLRTFGGGTKLEIK", "group_label": "met"}
{"binder": "A35793 (Fab, V domains shown, humanized Fab clone of 137F2; also called humanized antibody A35793) VH: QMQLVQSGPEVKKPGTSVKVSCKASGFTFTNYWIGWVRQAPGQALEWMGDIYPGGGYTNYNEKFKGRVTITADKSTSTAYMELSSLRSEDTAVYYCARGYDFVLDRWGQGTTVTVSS VL: DVVMTQSPAFLSVTPGEKVTITCKSSQSLFNSETQKNYLAWYQQKPGQPPKLLIYWASTRESGVPSRFSGSGSGTDFTFTISSLEAEDAATYYCKQSYTLRTFGGGTKLEIK", "group_label": "met"}

# credit: patent US20220259315A1
